- system.name: N-type calcium channel subunits (α1B, α2δ, and β3a) (Homo sapiens, UniProt Q00975)
- assay.comment: Block of Cav2.2 channel, whole cell voltage clamp, manual and PatchXpress
- Assay type: cell-based
- stated.conditions: Table 5; table follows Assay Example 3 (whole cell voltage clamp / PatchXpress); assay not given
Give measured log10 IC50 for each item. Keep answers brief.
Scale type: logarithmic (base 10). Underlying IC50 unit: nM.

Asked: Determine its reported log10 IC50: CS(=O)(=O)c1cc(C(F)(F)F)cnc1C(=O)NC[C@H]1C[C@H](S(=O)(=O)c2cccc(C(F)(F)F)c2)C1 [Compound 364]
Given back: 3.15

Asked: Determine its reported log10 IC50: COc1cc(F)cc(C(=O)N[C@H]2C[C@H](S(=O)(=O)c3cccc(C(F)(F)F)c3)C2)c1 [Compound 222]
Given back: 3.47

Asked: Determine its reported log10 IC50: Cn1nc(C(F)(F)F)cc1C(=O)NCC1(C)CCC(S(=O)(=O)c2cccc(C(F)(F)F)c2)CC1 (centres unmarked) [Compound 206]
Given back: 2.62

Asked: Determine its reported log10 IC50: CC(C)(NC(=O)[C@H]1C[C@H](S(=O)(=O)c2cccc(C(F)(F)F)c2)C1)c1ccc(F)cc1 [Compound 402]
Given back: 3.23

Asked: Determine its reported log10 IC50: CC(C)(C)NC(=O)CN[C@H]1CC[C@@](F)(S(=O)(=O)c2cccc(C(F)(F)F)c2)CC1 [Compound 27]
Given back: 2.40

Asked: Determine its reported log10 IC50: O=C(CN[C@H]1CC[C@H](CS(=O)(=O)c2cccc(C(F)(F)F)c2)CC1)NCC(F)(F)F [Compound 113]
Given back: 2.11

Asked: Determine its reported log10 IC50: CS(=O)(=O)c1cc(C(F)(F)F)ccc1C(=O)N[C@H]1CC[C@@](F)(S(=O)(=O)c2cc(F)cc(C(F)(F)F)c2)CC1 [Compound 330]
Given back: 3.01

Asked: Determine its reported log10 IC50: Cc1cc(NC(=O)CN[C@H]2CC[C@@H](S(=O)(=O)c3cccc(C(F)(F)F)c3)CC2)on1 [Compound 54]
Given back: 3.67

Asked: Determine its reported log10 IC50: O=C(N[C@H]1CC[C@@](F)(S(=O)(=O)c2cccc(C(F)(F)F)c2)CC1)[C@@H]1C[C@@H](c2ccccc2)CN1 [Compound 285]
Given back: 2.56

Asked: Determine its reported log10 IC50: O=C(CN[C@H]1CC[C@H](CS(=O)(=O)c2cccc(C(F)(F)F)c2)CC1)Nc1ccccn1 [Compound 120]
Given back: 2.76

Asked: Determine its reported log10 IC50: COc1cc(Cl)ccc1C(=O)N[C@H]1CC[C@@H](S(=O)(=O)c2cccc(C(F)(F)F)c2)CC1 [Compound 134]
Given back: 2.70

Asked: Determine its reported log10 IC50: CC(C)S(=O)(=O)c1cc(C(F)(F)F)cnc1C(=O)N[C@H]1CC[C@H](S(=O)(=O)c2cccc(C(F)(F)F)c2)CC1 [Compound 340]
Given back: 3.30

Asked: Determine its reported log10 IC50: O=C(N[C@H]1C[C@H](S(=O)(=O)c2cccc(C(F)(F)F)c2)C1)c1ccc(Cl)c(F)c1 [Compound 429]
Given back: 2.89

Asked: Determine its reported log10 IC50: O=C(Nc1ccc(Oc2ccc(C(F)(F)F)cn2)nc1)[C@H]1C[C@H](S(=O)(=O)c2cccc(C(F)(F)F)c2)C1 [Compound 400]
Given back: 3.58

###

- system.name: T-type calcium channel (Homo sapiens)
- assay.comment: T-type channel blocking, FLIPR data (Table 6)
- Type: cell-based
- stated.conditions: CAv3.2, inactivated state, read-out: CAv3.2 IC50 Inact.
Give measured IC50 for each item. Keep answers brief.
Please give a number only; it is taken to be in µM.

Asked: Determine its reported IC50: CC(C)([C@H]1C[C@H](NC(=O)c2ncc(C(F)(F)F)cc2S(C)(=O)=O)C1)S(=O)(=O)c1cccc(OC(F)(F)F)c1 [Compound 637]
Given back: 10

Asked: Determine its reported IC50: CC(C)([C@H]1C[C@H](NC(=O)c2ccc(Cl)cc2S(C)(=O)=O)C1)S(=O)(=O)c1cccc(C(F)(F)F)c1 [Compound 679]
Given back: 10

Asked: Determine its reported IC50: CC(C)(C1CC(CNC(=O)c2cnc(C(F)(F)F)nc2)C1)S(=O)(=O)c1cccc(C(F)(F)F)c1 (stereo not drawn) [Compound 616]
Given back: 6.4

###

- system.name: Human Cav 2.2 channels (Homo sapiens, UniProt Q00975)
- Sequence (Q00975 whole entry): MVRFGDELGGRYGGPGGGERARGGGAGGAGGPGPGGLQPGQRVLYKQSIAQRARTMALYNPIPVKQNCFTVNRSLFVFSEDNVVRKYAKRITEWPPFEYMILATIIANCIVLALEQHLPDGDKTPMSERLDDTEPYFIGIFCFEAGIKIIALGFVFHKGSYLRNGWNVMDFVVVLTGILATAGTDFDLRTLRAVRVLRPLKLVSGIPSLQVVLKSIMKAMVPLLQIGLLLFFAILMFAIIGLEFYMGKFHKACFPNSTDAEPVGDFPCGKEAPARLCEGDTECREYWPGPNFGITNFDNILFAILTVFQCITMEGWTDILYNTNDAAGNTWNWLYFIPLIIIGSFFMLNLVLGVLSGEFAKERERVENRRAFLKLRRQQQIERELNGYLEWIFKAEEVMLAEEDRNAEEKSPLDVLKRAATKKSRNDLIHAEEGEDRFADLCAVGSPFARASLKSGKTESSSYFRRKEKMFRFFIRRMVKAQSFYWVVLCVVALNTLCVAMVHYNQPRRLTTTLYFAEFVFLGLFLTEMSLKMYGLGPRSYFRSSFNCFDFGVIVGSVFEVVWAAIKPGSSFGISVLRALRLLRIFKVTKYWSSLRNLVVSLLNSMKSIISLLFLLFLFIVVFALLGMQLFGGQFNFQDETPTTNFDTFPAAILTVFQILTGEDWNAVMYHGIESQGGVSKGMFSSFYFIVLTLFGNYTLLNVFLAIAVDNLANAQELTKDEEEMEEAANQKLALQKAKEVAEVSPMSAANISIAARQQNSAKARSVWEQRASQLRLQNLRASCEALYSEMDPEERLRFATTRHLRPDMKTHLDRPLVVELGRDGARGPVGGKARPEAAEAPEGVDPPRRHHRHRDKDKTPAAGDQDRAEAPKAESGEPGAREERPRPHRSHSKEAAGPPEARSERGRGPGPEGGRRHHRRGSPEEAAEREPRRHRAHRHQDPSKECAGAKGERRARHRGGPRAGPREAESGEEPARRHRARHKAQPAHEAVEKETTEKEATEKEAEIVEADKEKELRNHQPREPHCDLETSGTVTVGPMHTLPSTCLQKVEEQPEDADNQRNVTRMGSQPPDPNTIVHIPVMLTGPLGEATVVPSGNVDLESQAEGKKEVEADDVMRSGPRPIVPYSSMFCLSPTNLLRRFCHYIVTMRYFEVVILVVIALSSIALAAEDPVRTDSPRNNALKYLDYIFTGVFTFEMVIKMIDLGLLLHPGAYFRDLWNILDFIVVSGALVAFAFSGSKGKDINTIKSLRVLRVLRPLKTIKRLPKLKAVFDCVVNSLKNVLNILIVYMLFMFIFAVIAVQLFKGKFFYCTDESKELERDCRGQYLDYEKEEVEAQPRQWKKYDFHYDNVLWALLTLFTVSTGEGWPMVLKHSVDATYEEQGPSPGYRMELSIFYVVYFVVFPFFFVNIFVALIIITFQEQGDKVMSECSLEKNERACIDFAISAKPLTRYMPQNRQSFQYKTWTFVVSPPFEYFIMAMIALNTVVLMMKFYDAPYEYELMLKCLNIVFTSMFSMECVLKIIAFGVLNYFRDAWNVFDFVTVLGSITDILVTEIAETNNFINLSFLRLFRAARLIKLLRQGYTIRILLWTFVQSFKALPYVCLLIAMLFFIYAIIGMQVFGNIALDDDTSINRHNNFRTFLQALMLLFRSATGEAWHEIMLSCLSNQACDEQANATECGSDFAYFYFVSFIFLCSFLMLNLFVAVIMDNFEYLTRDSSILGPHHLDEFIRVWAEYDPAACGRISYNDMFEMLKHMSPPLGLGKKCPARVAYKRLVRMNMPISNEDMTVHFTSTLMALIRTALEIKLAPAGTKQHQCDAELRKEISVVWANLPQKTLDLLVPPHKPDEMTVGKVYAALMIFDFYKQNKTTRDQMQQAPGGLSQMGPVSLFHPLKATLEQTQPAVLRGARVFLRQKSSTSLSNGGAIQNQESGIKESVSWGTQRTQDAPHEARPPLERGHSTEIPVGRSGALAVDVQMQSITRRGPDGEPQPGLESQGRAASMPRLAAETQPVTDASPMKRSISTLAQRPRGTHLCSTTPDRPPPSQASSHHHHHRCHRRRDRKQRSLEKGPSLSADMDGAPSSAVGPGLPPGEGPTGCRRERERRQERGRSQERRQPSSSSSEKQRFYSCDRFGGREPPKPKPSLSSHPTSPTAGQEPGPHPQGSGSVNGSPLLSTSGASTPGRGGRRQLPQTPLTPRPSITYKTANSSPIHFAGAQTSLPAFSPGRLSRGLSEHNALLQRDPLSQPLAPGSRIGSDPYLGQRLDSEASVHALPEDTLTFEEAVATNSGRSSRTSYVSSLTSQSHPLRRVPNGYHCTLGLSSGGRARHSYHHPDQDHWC
- Sequence (P54289 25-1103 partner): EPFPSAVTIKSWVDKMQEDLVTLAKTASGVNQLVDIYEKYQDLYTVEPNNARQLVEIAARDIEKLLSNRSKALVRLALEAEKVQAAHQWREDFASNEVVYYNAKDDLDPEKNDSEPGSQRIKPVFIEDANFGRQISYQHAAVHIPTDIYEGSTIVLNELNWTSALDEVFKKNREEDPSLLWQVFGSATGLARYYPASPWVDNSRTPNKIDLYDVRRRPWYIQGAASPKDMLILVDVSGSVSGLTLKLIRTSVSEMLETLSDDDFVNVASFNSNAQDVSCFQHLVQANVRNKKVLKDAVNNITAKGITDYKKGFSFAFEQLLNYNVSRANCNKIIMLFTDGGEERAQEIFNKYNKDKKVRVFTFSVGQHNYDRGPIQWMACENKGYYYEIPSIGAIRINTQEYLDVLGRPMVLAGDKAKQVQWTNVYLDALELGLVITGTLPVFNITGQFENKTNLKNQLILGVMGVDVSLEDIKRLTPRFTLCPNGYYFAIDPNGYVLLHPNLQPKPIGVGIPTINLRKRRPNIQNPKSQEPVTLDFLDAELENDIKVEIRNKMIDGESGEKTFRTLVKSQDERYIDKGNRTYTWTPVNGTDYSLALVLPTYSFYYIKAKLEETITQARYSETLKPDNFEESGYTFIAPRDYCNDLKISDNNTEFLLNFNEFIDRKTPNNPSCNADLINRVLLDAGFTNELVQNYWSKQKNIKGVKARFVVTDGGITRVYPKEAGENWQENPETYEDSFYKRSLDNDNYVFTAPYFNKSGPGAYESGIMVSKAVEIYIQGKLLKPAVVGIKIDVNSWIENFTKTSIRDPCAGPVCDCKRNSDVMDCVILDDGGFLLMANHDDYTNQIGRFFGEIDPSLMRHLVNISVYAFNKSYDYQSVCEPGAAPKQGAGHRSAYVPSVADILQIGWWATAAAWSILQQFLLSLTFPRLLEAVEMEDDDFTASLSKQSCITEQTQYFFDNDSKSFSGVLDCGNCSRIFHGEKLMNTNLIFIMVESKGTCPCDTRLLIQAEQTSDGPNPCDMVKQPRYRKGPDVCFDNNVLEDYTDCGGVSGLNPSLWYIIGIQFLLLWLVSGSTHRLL
- Sequence (P54284 whole entry partner): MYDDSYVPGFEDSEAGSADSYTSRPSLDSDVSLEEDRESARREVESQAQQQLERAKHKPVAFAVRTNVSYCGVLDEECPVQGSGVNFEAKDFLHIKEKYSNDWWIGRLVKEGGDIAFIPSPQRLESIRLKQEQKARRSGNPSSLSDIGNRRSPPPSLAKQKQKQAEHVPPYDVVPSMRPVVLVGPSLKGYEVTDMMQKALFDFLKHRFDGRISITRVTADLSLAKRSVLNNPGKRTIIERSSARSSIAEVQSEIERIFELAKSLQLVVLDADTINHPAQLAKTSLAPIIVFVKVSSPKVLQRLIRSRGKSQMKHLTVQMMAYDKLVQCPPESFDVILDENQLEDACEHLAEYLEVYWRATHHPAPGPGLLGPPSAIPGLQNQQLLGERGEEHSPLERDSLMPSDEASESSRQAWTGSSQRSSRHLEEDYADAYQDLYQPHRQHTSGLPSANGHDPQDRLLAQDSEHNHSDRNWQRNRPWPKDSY
- assay.comment: Fluorescent assay for CaV2.2 channels using potassium depolarization (VIPR/FLIPR)
- Format: cell-based
- stated.conditions: FLIPR data; inactivated state; read-out: CAv2.2 IC50 Inact.
readout.label: IC50 (nM)
Please give a number only; it is taken to be in nM.

Asked: Provide IC50, recorded with Human Cav 2.2 channels (Homo sapiens, UniProt Q00975), of CC(C)([C@H]1C[C@@H](NC(=O)CC2(N)CCCCC2)C1)S(=O)(=O)c1cc(F)cc(C(F)(F)F)c1
Given back: 1360

Asked: Provide IC50, recorded with Human Cav 2.2 channels (Homo sapiens, UniProt Q00975), of O=S(=O)(c1cc(F)cc(C(F)(F)F)c1)[C@H]1C[C@@H](CNc2ccnc(C(F)(F)F)n2)C1
Given back: 3260

Asked: Provide IC50, recorded with Human Cav 2.2 channels (Homo sapiens, UniProt Q00975), of N[C@H]1CCCCC1C(=O)NC[C@H]1C[C@H](S(=O)(=O)c2cccc(OC(F)(F)F)c2)C1 (some centres unmarked)
Given back: 2340

Asked: Provide IC50, recorded with Human Cav 2.2 channels (Homo sapiens, UniProt Q00975), of CC(C)([C@H]1C[C@H](NS(=O)(=O)c2ccc(C(F)(F)F)nc2)C1)S(=O)(=O)c1cccc(C(F)(F)F)c1
Given back: 790

Asked: Provide IC50, recorded with Human Cav 2.2 channels (Homo sapiens, UniProt Q00975), of CC(C)(C[C@H]1C[C@H](NC(=O)c2ncc(C(F)(F)F)cc2S(C)(=O)=O)C1)S(=O)(=O)c1cccc(C(F)(F)F)c1
Given back: 490

Asked: Provide IC50, recorded with Human Cav 2.2 channels (Homo sapiens, UniProt Q00975), of CC(C)(C[C@H]1C[C@@H](NC(=O)c2ccc(C(F)(F)F)cn2)C1)S(=O)(=O)c1cccc(C(F)(F)F)c1
Given back: 70

Asked: Provide IC50, recorded with Human Cav 2.2 channels (Homo sapiens, UniProt Q00975), of CC(C)([C@H]1C[C@@H](NC(=O)c2ccc(C(F)(F)F)cc2S(C)(=O)=O)C1)S(=O)(=O)c1cc(F)cc(C(F)(F)F)c1
Given back: 1080

Asked: Provide IC50, recorded with Human Cav 2.2 channels (Homo sapiens, UniProt Q00975), of CC(C)([C@H]1C[C@H](NC(=O)c2ccc(Cl)cn2)C1)S(=O)(=O)c1cccc(C(F)(F)F)c1
Given back: 200

Asked: Provide IC50, recorded with Human Cav 2.2 channels (Homo sapiens, UniProt Q00975), of CC(C)(C1CC(CNC(=O)c2ccc(F)c(Cl)c2)C1)S(=O)(=O)c1cccc(C(F)(F)F)c1 (centres unmarked)
Given back: 120

Asked: Provide IC50, recorded with Human Cav 2.2 channels (Homo sapiens, UniProt Q00975), of CC(C)([C@H]1C[C@H](NC(=O)c2cncc(C(F)(F)F)c2)C1)S(=O)(=O)c1cccc(C(F)(F)F)c1
Given back: 280

Asked: Provide IC50, recorded with Human Cav 2.2 channels (Homo sapiens, UniProt Q00975), of CC(C)S(=O)(=O)c1cc(C(F)(F)F)cnc1C(=O)NC[C@H]1C[C@H](S(=O)(=O)c2cccc(Cl)c2)C1
Given back: 2290

Asked: Provide IC50, recorded with Human Cav 2.2 channels (Homo sapiens, UniProt Q00975), of CC(C)([C@H]1C[C@H](Nc2ccnc(C(F)(F)F)n2)C1)S(=O)(=O)c1cc(F)cc(C(F)(F)F)c1
Given back: 1190

Asked: Provide IC50, recorded with Human Cav 2.2 channels (Homo sapiens, UniProt Q00975), of CC(C)([C@H]1C[C@H](NC(=O)c2ccc(C(F)(F)F)cc2)C1)S(=O)(=O)c1cccc(C(F)(F)F)c1
Given back: 220

###

- system.name: T-type calcium channel (Homo sapiens)
- assay.comment: T-type channel blocking, FLIPR data (Table 6)
- Type: cell-based
- stated.conditions: CAv3.2, closed state, read-out: CAv3.2 IC50 Closed
pIC50: −log10 of the molar value.
readout.label: pIC50

Asked: Determine its reported pIC50: CC(C)([C@H]1C[C@@H](NC(=O)c2cnc(C(F)(F)F)nc2)C1)S(=O)(=O)c1cccc(C(F)(F)F)c1
Given back: ≤ 5.00

Asked: Determine its reported pIC50: CC(C)(C[C@H]1C[C@H](NC(=O)c2ncc(C(F)(F)F)cc2S(C)(=O)=O)C1)S(=O)(=O)c1cccc(C(F)(F)F)c1
Given back: ≤ 5.00

Asked: Determine its reported pIC50: CC(C)([C@H]1C[C@H](NC(=O)c2ccc(Cl)c(F)c2)C1)S(=O)(=O)c1cc(F)cc(C(F)(F)F)c1
Given back: 5.50

Asked: Determine its reported pIC50: CC(C)([C@H]1C[C@H](NS(=O)(=O)c2ccc(OC(F)(F)F)cc2)C1)S(=O)(=O)c1cc(F)cc(C(F)(F)F)c1
Given back: ≤ 5.00

Asked: Determine its reported pIC50: CC(C)([C@H]1C[C@H](NS(=O)(=O)c2ccc(C(F)(F)F)nc2)C1)S(=O)(=O)c1cccc(C(F)(F)F)c1
Given back: 5.42

Asked: Determine its reported pIC50: CC(C)(C[C@H]1C[C@H](NC(=O)CC2(N)CCCCC2)C1)S(=O)(=O)c1cccc(C(F)(F)F)c1
Given back: ≤ 5.00
